Hello, the source for this data is the supplement of paper PMC10127200, in case you need it.

Tested on: OVCAR4
TEST NAME: Euclidean distance of Cell Painting phenotypic profile (signed KS, 77 features) to DMSO centroid (dimensionless distance); higher = stronger phenotypic change vs DMSO (phenoactivity)
CONDITION DETAILS: 48 h; 5 or 10 uM (library dependent)
Structures can show the parent of a compound that is named as a salt.
# cutoff 2 applies to Euclidean distance; >= gives 1.0, < gives 0.0

Problem: Say whether "COc1ccc(C=O)cc1" shows Euclidean distance of 2 or more.
Solution: 0.0

Problem: Lookup "Cl[TeH]1(Cl)(Cl)OCCO1.N"
Solution: 1.0

Problem: Lookup "CO[C@]12C[C@@H](COC(=O)c3cncc(Br)c3)CN(C)[C@@H]1Cc1cn(C)c3cccc2c13"
Solution: 0.0

Problem: Lookup CCC(=O)O[C@H]1CC[C@H]2[C@@H]3CC[C@H]4CC(=O)[C@H](C)C[C@]4(C)[C@H]3CC[C@]12C [Drostanolone Propionate]
Solution: 0.0

Problem: Lookup CN(C)C(=O)Oc1ccc[n+](C)c1 [Pyridostigmine Bromide]
Solution: 0.0

Problem: Lookup "CCN1CCN(C(=O)Cc2ccc(Nc3ncc(F)c(Nc4ccc(C(=O)Nc5ccccc5Cl)cc4)n3)cc2)CC1"
Solution: 1.0

Problem: Lookup "O=c1cccc2n1C[C@@H]1CNC[C@H]2C1"
Solution: 1.0

Problem: Lookup "C[C@H]1CCC/C=C/[C@@H]2C[C@H](O)C[C@H]2[C@H](O)/C=C/C(=O)O1"
Solution: 1.0

Problem: Lookup N[C@@H]1C[C@H]1c1ccccc1 [Tranylcypromine (2-PCPA) HCl]
Solution: 0.0

====

System: DU145
TEST NAME: Euclidean distance of Cell Painting phenotypic profile (signed KS, 77 features) to DMSO centroid (dimensionless distance); higher = stronger phenotypic change vs DMSO (phenoactivity)
CONDITION DETAILS: 48 h; 5 or 10 uM (library dependent)
Structures can show the parent of a compound that is named as a salt.
# cutoff 1 applies to Euclidean distance; >= gives 1, < gives 0

Problem: Say whether O=P1(N(CCCl)CCCl)NCCCO1 (centres undefined) [Cyclophosphamide Monohydrate] shows Euclidean distance of 1 or more.
Solution: 1

Problem: Lookup "COc1cc(-n2c(=S)[nH]c3ccccc3c2=O)c(Cl)cc1Cl"
Solution: 0

Problem: Lookup "COc1cc([C@@H]2c3cc4c(cc3[C@H](O)[C@H]3COC(=O)[C@@H]23)OCO4)cc(OC)c1OC"
Solution: 1

Problem: Lookup Cn1c(CCCCCCC(=O)NO)nc2cc(N(CCCl)CCCl)ccc21 [Tinostamustine(EDO-S101)]
Solution: 1

Problem: Lookup COc1ccc(OC)c(C(O)C(C)N)c1 (centres undefined) [Methoxamine HCl]
Solution: 1

Problem: Lookup "CC(C)=CCOc1c2occc2cc2ccc(=O)oc12"
Solution: 0

Problem: Lookup "NC(=O)CN1CCCC1=O"
Solution: 0

Problem: Lookup CC1(C)C(C=C(Cl)Cl)C1C(=O)OCc1cccc(Oc2ccccc2)c1 (centres undefined)
Solution: 1

====

System: OVCAR4
TEST NAME: Euclidean distance of Cell Painting phenotypic profile (signed KS, 77 features) to DMSO centroid (dimensionless distance); higher = stronger phenotypic change vs DMSO (phenoactivity)
CONDITION DETAILS: 48 h; 5 or 10 uM (library dependent)
Provide the recorded Euclidean distance for the entries that follow.
Answer with the value's number alone.

Problem: Given the entry "C#C[C@]1(O)C=C[C@H]2[C@@H]3CCC4=CC(=O)CC[C@@H]4[C@H]3CC[C@@]21CC" , report its measured Euclidean distance.
Solution: 1.33

Problem: Lookup "OC(c1ccccc1)(c1ccccc1)C1CCNCC1"
Solution: 3.18

Problem: Lookup CN1C(=O)CCS(=O)(=O)C1c1ccc(Cl)cc1 (stereo not given)
Solution: 1.23

Problem: Lookup O=C([O-])C(Cl)Cl.[Na+] [Sodium dichloroacetate (DCA)]
Solution: 1.4

Problem: Lookup CC(C)(C)[C@]1(O)CC2OC(=O)CC23C(=O)OC2OC(=O)[C@H](O)C231 (stereo not given in full) [Bilobalide]
Solution: 1.47
